System: K-562 leukemia
Test: NCI-60 one-dose screen, 48 h (100 = growth as untreated, 0 = no growth, -100 = all killed)
Conditions: 10 µM unless noted
Compounds without any hit were thinned out: in the full panel of roughly 83,000, 20% have a hit.
Please respond with true (1) when measured growth is strictly beneath 50%, and with false (0) in all other cases.

• O=C(/C=C/c1ccco1)Nc1ncc(Cc2ccc(F)cc2)s1 = true (1)
• CC(C)(C)n1cc(-c2ccnc(NCCNS(=O)(=O)c3ccc(C(F)(F)F)cc3)c2)c(-c2ccccc2)n1 = true (1)
• COc1cc2c(c(OC)c1OC)C(=O)CC(c1cccc(C(=O)Nc3ccc(Br)cc3)c1)O2 (centres undefined) = true (1)
• CC1(C)C2=C(C(=O)N1Cc1ccccc1)C(c1ccco1)N(C(=O)C1CCC1)CCN2 (centres undefined) = false (0)
• O=C1CCC(C(=O)N/N=C/c2ccc([N+](=O)[O-])cc2)N1 (centres undefined) = false (0)
• CCN1C(=O)N(CC)C2C1NN=c1s/c(=C\c3ccc(F)cc3)c(=O)n12 (centres undefined) = true (1)
• Cc1nc2ccccc2c(/C=C/c2ccc(Br)cc2)c1C(=O)/C=C/c1ccccc1 = true (1)
• CN1CCN(c2ccc(Nc3ncc4[nH]c(=O)n(Cc5ccccc5N)c4n3)cc2)CC1 = false (0)
• C=C(C)[C@@H]1CC[C@]2(COC(=O)c3cccnc3)CC[C@]3(C)[C@H](CC[C@@H]4[C@@]5(C)CCCN(C(=O)c6cccnc6)C(C)(C)[C@@H]5CC[C@]43C)[C@@H]12 = true (1)
• C#Cc1cccc(Nc2nc(Cl)nc3cc(NC(=O)CCl)ccc23)c1 = true (1)
• CNC(=O)c1cc(Oc2ccc3nc(NC(=O)Nc4ccc(F)cc4F)sc3c2)ccn1 = false (0)
• CCOC(=O)c1c(C)nc2c(c1N)C(=O)C(=O)N2CCc1ccc(OC)c(OC)c1 = true (1)
• CCOC(=O)c1cc(C(=O)c2cc(OC)cc(OC)c2)n2ccccc12 = true (1)
• COc1ccc(-c2cc(-c3ccc(N(C)C)cc3)nc(NC(=O)c3cccnc3)n2)cc1 = false (0)
• C=C(c1ccc(C(=O)O)c(F)c1)c1cc2c(cc1C)C(C)(C)C=CC2(C)C = false (0)
• COc1cccc(-c2cc(-c3ccc(Nc4nc(Nc5ccc(Cl)cc5)nc(Nc5ccc(Cl)cc5)n4)cc3)nc(N)c2C#N)c1 = true (1)
• CC(C)=CC(=O)C1C(=O)c2ccccc2C1=O = false (0)
• Cc1ccc2nc(/C=C/c3ccc(N(C)C)cc3)cc(C)c2c1 = true (1)
• Cn1cc(-c2csc(-c3cn(C)c4ccc(F)cc34)n2)c2cnccc21 = true (1)
• CN1CCN(Cc2ccc(NC(=O)c3cncc(C#Cc4cnc(N)c5ccc(C#N)cc45)c3)cc2C(F)(F)F)CC1 = true (1)
• Cn1cc(-c2nc(-c3c[nH]c4ccncc34)cs2)c2cc(F)ccc21 = true (1)
• C#Cc1ccc(NC(=O)Cc2ccc(/C=C/C(=O)c3nccn3C)cc2)cc1 = true (1)
• CCOC(=O)CC1C(CNC(=O)NC)OC(n2cnc3c(NC(=O)Nc4ccccc4)ncnc32)C1O[Si](C)(C)C(C)(C)C (centres undefined) = false (0)
• COc1cccc2cc(N(C)c3nc(C)nc4c3CCC4)ccc12 = true (1)
• CCOC(=O)c1c(N)sc2cc(O)ccc12 = false (0)
• O=C1N/C(=N/N=C(c2ccccc2)c2ccccc2)S/C1=C\c1ccc(Br)cc1 = false (0)
• O=C(/C=C/c1ccc([N+](=O)[O-])cc1)c1cccc(Nc2nc(Nc3ccccc3)nc(Nc3ccccc3)n2)c1 = false (0)
• Cc1nn(C)c2ncnc(Nc3ccccc3Br)c12 = false (0)
